target: his-labeled human IL-13 (immunogen A) (human) (UniProt P35225); assay: ELISA, biotin-immunogen A; antibody at 2.67 nM
measured.attribute: OD450 nm
Answer with the value's number alone.

- binder: "29D9H8 (lead antibody, mouse hybridoma) (antibody, V domains shown, Mouse monoclonal antibody purified from hybridoma supernatant on Protein G) VH: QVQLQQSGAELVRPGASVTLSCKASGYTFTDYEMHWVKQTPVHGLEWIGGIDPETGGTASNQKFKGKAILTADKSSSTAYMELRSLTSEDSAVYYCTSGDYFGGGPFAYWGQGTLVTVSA VL: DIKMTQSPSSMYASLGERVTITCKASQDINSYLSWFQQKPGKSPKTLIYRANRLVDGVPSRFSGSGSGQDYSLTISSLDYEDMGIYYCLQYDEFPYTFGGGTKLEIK"
  OD450 nm: 1.61

Need OD450 nm of 35E2C3 (lead antibody, mouse hybridoma) (antibody, V domains shown, Mouse monoclonal antibody purified from hybridoma supernatant on Protein G) VH: EVQLQESGPGLAKPSQTLSLTCSVTGYSITSDYWNWIRKFPGNKLEYMGYISYNGNTYYNPSLKSQISITRDTSKNQLYLQLKSATTEDTATYYCARLAKWTWYFDIWGTGTTVTVSS VL: DIQMNQSPSSLSASLGDTITITCHASQNINVWLSWYQQKPGSLPKLLIYKASDLHTGVPSRFSGSGSGTGFTLTISSLQPEDIATYYCQQGQSYPYTFGGGTKLEIK , thanks.
1.31

Need OD450 nm of c35E2C3 (mouse-human chimeric IL-13 antibody) (antibody, V domains shown) VH: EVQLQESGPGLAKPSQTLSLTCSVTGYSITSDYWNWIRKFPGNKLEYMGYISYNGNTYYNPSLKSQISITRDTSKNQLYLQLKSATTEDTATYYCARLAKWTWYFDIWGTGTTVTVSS VL: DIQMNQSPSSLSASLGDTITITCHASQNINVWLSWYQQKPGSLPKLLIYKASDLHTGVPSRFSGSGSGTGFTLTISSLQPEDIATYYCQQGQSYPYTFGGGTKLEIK , thanks.
2.4
